System: HeLa
Method Summary: Cytotoxicity against Homo sapiens (human) HeLa cells assessed as cell viability at 100 uM by MTT assay
Type: functional
Condition Context: read-out: Activity
Quantity Measured: viability at 100 µM (%)
Numbers only here, please. The scale is %.

CCN1CCN(CCCn2nc(-c3ccccc3)cc(Cc3ccco3)c2=O)CC1; 42.8
O=c1c(Cc2ccccc2)cc(-c2ccccc2)nn1CCCN1CCOCC1; 61.8
O=c1c(Cc2cccs2)cc(-c2ccccc2)nn1CCCN1CCN(c2ccccc2)CC1; 77.2
O=c1c(Cc2cccs2)cc(-c2ccccc2)nn1CCCN1CCN(c2cccc(Cl)c2)CC1; 37.8

As a next step, examine the compound that follows.
IN: # return recorded viability at 100 µM for input `CCN1CCN(CCCn2nc(-c3ccccc3)cc(Cc3cccs3)c2=O)CC1`
OUT: 37.1

----------
Method Summary: Cytotoxicity against Homo sapiens (human) H1299 cells assessed as cell viability at 100 uM by MTT assay
Format: functional
Condition Context: NCI-H1299, read-out: Activity
Field 'label' (enum: 1 / -1). Set to 1 when viability at 100 µM is strictly under 90%; else -1.

O=c1c(Cc2ccco2)cc(-c2ccccc2)nn1CCCN1CCN(Cc2ccccc2)CC1; -1

IN: Lab log: compare recorded viability at 100 µM with 90%; is it strictly lower for `O=c1c(Cc2cccs2)cc(-c2ccccc2)nn1CCCN1CCN(Cc2ccccc2)CC1` ?
OUT: -1

IN: Take the compound `O=c1c(Cc2ccccn2)cc(-c2ccccc2)nn1CCCN1CCN(c2cccc(Cl)c2)CC1` and say whether its viability at 100 µM is less than 90%.
OUT: -1

IN: Check if viability at 100 µM falls below 90% for `O=c1c(Cc2ccccn2)cc(-c2ccccc2)nn1CCCN1CCOCC1` .
OUT: 1

IN: Report whether reported viability at 100 µM is lower than 90% (strictly) for `CCN1CCN(CCCn2nc(-c3ccccc3)cc(Cc3cccs3)c2=O)CC1`
OUT: -1

IN: Dear reviewer, please state whether `O=c1c(Cc2ccccc2)cc(-c2ccccc2)nn1CCCN1CCN(c2ccccc2)CC1` has viability at 100 µM strictly beneath 90%.
OUT: -1

IN: I'd appreciate it if you could check whether `O=c1c(Cc2ccccc2)cc(-c2ccccc2)nn1CCCN1CCN(Cc2ccccc2)CC1` has viability at 100 µM smaller than 90%.
OUT: 1

IN: Please state whether viability at 100 µM is below 90% for `CCN1CCN(CCCn2nc(-c3ccccc3)cc(Cc3ccccn3)c2=O)CC1`
OUT: -1

IN: # strict comparison: is reported viability at 100 µM < 90%? input = `O=c1c(Cc2ccccc2)cc(-c2ccccc2)nn1CCCN1CCN(c2cccc(Cl)c2)CC1`
OUT: -1

----------
Listed next: entries and their corresponding viability at 50 µM.
Method Summary: Cytotoxicity against Homo sapiens (human) H1299 cells assessed as cell viability at 50 uM by MTT assay
Assay type: functional
Condition Context: NCI-H1299, read-out: Activity
Your answer should be a plain number; it is taken to be in %.

O=c1c(Cc2ccccc2)cc(-c2ccccc2)nn1CCCN1CCN(Cc2ccccc2)CC1; 78.5
CCN1CCN(CCCn2nc(-c3ccccc3)cc(Cc3ccccn3)c2=O)CC1; 100
O=c1c(Cc2cccs2)cc(-c2ccccc2)nn1CCCN1CCN(c2ccccc2)CC1; 86.2
O=c1c(Cc2ccccn2)cc(-c2ccccc2)nn1CCCN1CCN(c2cccc(Cl)c2)CC1; 97.3
CCN1CCN(CCCn2nc(-c3ccccc3)cc(Cc3ccco3)c2=O)CC1; 96.4
O=c1c(Cc2ccco2)cc(-c2ccccc2)nn1CCCN1CCN(Cc2ccccc2)CC1; 95.7
O=c1c(Cc2ccco2)cc(-c2ccccc2)nn1CCCN1CCOCC1; 100
O=c1c(Cc2cccs2)cc(-c2ccccc2)nn1CCCN1CCN(Cc2ccccc2)CC1; 96.1
O=c1c(Cc2ccco2)cc(-c2ccccc2)nn1CCCN1CCN(c2ccccc2)CC1; 78.9
O=c1c(Cc2ccccn2)cc(-c2ccccc2)nn1CCCN1CCOCC1; 82.4

IN: Supply viability at 50 µM value. Item: `O=c1c(Cc2ccccc2)cc(-c2ccccc2)nn1CCCN1CCN(c2ccccc2)CC1`
OUT: 100

IN: Annotate the molecule `CCN1CCN(CCCn2nc(-c3ccccc3)cc(Cc3ccccc3)c2=O)CC1` with its measured viability at 50 µM.
OUT: 96

IN: Note down viability at 50 µM recorded for `CCN1CCN(CCCn2nc(-c3ccccc3)cc(Cc3cccs3)c2=O)CC1`
OUT: 98.8

IN: Find the measured viability at 50 µM of `O=c1c(Cc2cccs2)cc(-c2ccccc2)nn1CCCN1CCN(c2cccc(Cl)c2)CC1` and report it.
OUT: 93.2

IN: Assign viability at 50 µM to the following record: `O=c1c(Cc2ccccn2)cc(-c2ccccc2)nn1CCCN1CCN(Cc2ccccc2)CC1`
OUT: 92.4

IN: Answer with the recorded viability at 50 µM for the molecule listed here: `O=c1c(Cc2ccccc2)cc(-c2ccccc2)nn1CCCN1CCN(c2cccc(Cl)c2)CC1`
OUT: 94.1
